molecular target: panel of 60 human kinases (Homo sapiens, UniProt P50750); construct: purchased Reaction Biology Corp; assay: Radiolabeled ATP kinase assay, panel of 60 kinases (Table S5); assay type: biochemical; details: CDK9/cyclin T2; 0.1 μM; 10 μM ATP; read-out: % Enzyme Activity (relative to DSMO controls)
Sequence (P50750 whole entry): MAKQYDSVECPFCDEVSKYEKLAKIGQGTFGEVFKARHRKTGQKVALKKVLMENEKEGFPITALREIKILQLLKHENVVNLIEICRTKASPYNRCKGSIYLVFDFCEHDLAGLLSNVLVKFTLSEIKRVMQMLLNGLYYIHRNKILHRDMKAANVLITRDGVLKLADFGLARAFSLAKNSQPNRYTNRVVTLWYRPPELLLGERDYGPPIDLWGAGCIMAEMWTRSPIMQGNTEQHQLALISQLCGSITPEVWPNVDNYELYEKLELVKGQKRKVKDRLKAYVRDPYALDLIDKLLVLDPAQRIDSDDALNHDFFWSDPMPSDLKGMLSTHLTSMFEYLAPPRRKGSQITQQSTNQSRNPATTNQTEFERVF
Doc: threshold 70% (exclusive). Items with remaining activity at 0.1 µM beneath it return Satisfied; others return Not satisfied.

Solved cases below.
COc1ccccc1-c1c[nH]c2ncc(-c3ccc(CN4CCN(C)CC4)cc3)cc12 :: Satisfied
CN1CCN(Cc2ccc(-c3cnc4[nH]cc(-c5ccccc5Cl)c4c3)cc2)CC1 :: Not satisfied
CN1CCN(Cc2ccc(-c3cnc4[nH]cc(-c5ccoc5)c4c3)cc2)CC1 :: Satisfied
Cc1nn(C)c(C)c1-c1c[nH]c2ncc(-c3ccc(CN4CCN(C)CC4)cc3)cc12 :: Not satisfied
CN1CCN(Cc2ccc(-c3cnc4[nH]cc(-c5cnn(Cc6ccccc6)c5)c4c3)cc2)CC1 :: Not satisfied

Here's the next entry for you.
Hello, I'm reviewing records and need to know if remaining activity at 0.1 µM of CN1CCN(Cc2ccc(-c3cnc4[nH]cc(-c5ccc6[nH]ccc6c5)c4c3)cc2)CC1 [Compound 1, reference compound] is below 70%. Could you check? Not satisfied

###

molecular target: MLK1/MAP3K9 (Homo sapiens); construct: purchased Reaction Biology Corp; test: Radiolabeled ATP kinase assay (Reaction Biology Corp.), MLK1; assay type: biochemical; details: [Cmpd] 0.1 μM; 10 μM ATP; read-out: % Enzyme Activity Remaining (relative to DMSO controls), MLK1/MAP3K9, Data 2
Sequence (P80192 whole entry): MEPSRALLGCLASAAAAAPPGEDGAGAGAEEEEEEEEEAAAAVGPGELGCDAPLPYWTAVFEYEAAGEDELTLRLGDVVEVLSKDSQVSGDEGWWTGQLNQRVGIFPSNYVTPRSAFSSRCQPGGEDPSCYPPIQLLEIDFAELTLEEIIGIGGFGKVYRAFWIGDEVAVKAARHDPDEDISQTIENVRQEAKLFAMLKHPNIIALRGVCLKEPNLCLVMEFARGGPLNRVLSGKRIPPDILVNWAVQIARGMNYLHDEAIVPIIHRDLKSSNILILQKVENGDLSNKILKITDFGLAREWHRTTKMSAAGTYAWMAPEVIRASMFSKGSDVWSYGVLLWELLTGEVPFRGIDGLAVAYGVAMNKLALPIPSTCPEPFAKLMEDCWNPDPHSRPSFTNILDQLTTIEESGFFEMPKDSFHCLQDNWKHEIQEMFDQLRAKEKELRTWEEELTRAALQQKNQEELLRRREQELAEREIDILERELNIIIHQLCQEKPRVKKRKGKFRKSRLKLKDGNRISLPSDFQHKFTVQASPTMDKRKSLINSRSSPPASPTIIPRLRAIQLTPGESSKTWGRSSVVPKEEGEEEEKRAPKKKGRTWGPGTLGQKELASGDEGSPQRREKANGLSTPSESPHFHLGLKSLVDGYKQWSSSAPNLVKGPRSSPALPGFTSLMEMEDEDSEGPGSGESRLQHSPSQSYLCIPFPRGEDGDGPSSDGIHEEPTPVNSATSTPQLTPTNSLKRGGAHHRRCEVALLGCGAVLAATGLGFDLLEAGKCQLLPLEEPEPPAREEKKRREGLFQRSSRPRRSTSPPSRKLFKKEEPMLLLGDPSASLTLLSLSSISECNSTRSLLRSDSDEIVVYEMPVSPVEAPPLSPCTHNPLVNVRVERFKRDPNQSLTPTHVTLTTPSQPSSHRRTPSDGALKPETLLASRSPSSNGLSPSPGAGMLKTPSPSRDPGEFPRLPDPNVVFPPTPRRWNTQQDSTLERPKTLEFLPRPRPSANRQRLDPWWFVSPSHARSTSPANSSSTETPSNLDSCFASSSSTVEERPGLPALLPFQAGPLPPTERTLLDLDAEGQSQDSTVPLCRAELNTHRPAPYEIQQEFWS
Consider the following compounds; for each one, report its remaining activity at 0.1 µM.
Numbers only, in %.

Worked set:
CN1CCN(Cc2ccc(-c3cnc4[nH]cc(-c5cccc6[nH]ncc56)c4c3)cc2)CC1 [Compound 7aa] :: 51.7
CN1CCN(Cc2ccc(-c3cnc4[nH]cc(-c5cccc([N+](=O)[O-])c5)c4c3)cc2)CC1 [Compound 7p] :: 62.9
CN1CCN(Cc2ccc(-c3cnc4[nH]cc(-c5ccccc5)c4c3)cc2)CC1 [Compound 7ac] :: 57.7

Please report remaining activity at 0.1 µM for every entry that follows.
1. CN1CCN(Cc2ccc(-c3cnc4[nH]cc(-c5cc6ccccc6[nH]5)c4c3)cc2)CC1 [Compound 7a]
2. CN1CCN(Cc2ccc(-c3cnc4[nH]cc(-c5ccc(F)c(C(=O)O)c5)c4c3)cc2)CC1 [Compound 7i]
3. CN1CCN(Cc2ccc(-c3cnc4[nH]cc(-c5ccc(N)nc5)c4c3)cc2)CC1 [Compound 7m]

[75.1, 79.4, 96.3]
